# SYSTEM_NAME: Acetylcholinesterase (Homo sapiens, UniProt P22303)
# Sequence (P22303 whole entry): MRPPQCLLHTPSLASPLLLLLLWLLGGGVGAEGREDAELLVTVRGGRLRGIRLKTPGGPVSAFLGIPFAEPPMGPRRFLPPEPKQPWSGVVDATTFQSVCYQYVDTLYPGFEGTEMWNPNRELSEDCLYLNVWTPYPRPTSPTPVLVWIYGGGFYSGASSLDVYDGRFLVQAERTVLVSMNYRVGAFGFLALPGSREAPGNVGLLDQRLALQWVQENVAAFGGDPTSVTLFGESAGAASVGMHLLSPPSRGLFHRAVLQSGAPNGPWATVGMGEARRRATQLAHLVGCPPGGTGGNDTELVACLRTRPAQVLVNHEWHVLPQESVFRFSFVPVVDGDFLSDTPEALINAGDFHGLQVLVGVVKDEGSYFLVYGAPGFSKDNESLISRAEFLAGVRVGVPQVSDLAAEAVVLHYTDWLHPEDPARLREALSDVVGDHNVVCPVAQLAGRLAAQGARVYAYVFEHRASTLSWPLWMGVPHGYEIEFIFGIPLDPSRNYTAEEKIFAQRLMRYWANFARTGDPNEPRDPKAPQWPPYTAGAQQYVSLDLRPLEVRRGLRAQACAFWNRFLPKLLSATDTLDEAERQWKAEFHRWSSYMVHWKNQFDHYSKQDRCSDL
# TEST_DESCRIPTION: DRUGMATRIX: Acetylcholinesterase enzyme inhibition (substrate: acetylthiocholine)
# Type: cell-based, HEK293
# REPORTED_CONDITIONS: hek293; Not Active = under 50% inhibition at 10 µM
Where a SMILES comes first, the peptide text is derived from it. Bridges are numbered along the chain shown (N, C = ends). [ ]: non-standard residue; d: D form. The star is where a group is joined. Threoninol(2S,3R) = C[C@@H](O)[C@H](CO)N*
METRIC: IC50

NC(=O)c1cnccn1 [PYRAZINAMIDE] :: Not Active
C[C@@H](O)[C@H](CO)NC(=O)[C@@H]1CSSC[C@H](NC(=O)[C@H](N)Cc2ccccc2)C(=O)N[C@@H](Cc2ccccc2)C(=O)N[C@H](Cc2c[nH]c3ccccc23)C(=O)N[C@@H](CCCCN)C(=O)N[C@@H]([C@@H](C)O)C(=O)N1 (H-[dF]CF[dW]KTC-{Threoninol(2S,3R)}; disulfide 2-7) :: Not Active
O=C(C1CCCCC1)N1CC(=O)N2CCc3ccccc3C2C1 (stereo not drawn) :: Not Active

----------
# SYSTEM_NAME: Receptor tyrosine-protein kinase erbB-2 (Homo sapiens); note: in other assays of this panel Not Active means under 50% inhibition at 10 µM;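 note: inhibition of HER2 kinase enzyme activity, measured with Poly(Glu:Tyr) as the phosphorylation substrate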
# Sequence (P04626 whole entry): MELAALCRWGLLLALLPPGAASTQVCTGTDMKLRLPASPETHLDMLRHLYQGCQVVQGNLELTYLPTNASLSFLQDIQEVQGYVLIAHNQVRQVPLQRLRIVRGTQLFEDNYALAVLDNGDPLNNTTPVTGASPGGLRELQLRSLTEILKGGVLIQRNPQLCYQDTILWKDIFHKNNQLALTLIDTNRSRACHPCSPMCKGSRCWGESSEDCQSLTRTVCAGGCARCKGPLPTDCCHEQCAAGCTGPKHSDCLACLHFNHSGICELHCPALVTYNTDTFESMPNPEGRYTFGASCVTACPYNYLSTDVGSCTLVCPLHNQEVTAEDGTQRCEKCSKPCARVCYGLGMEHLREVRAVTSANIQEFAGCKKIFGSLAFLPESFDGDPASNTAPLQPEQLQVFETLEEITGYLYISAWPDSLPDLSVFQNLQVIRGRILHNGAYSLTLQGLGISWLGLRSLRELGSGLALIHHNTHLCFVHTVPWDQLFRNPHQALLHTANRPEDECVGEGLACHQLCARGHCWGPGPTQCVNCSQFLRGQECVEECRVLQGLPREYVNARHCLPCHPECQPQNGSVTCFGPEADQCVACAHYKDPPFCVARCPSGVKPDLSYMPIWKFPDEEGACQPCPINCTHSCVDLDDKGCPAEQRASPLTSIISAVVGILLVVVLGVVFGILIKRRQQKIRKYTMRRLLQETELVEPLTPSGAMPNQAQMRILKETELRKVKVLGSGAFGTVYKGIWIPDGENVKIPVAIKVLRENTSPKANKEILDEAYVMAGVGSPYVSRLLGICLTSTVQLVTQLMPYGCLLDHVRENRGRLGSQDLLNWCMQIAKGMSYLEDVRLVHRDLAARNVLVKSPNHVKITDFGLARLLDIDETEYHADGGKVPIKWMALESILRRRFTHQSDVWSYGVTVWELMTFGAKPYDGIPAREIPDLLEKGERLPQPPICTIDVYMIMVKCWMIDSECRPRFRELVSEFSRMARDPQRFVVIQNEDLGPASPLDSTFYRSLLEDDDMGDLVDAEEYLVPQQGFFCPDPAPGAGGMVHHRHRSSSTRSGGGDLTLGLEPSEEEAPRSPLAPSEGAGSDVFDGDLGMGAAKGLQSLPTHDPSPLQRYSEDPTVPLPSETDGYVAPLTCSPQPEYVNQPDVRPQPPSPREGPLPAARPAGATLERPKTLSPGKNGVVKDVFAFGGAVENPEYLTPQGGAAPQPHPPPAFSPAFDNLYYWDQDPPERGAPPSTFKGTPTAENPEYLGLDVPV
# TEST_DESCRIPTION: biochemical
# Assay type: cell-based, Insect cells
# REPORTED_CONDITIONS: insect cells
METRIC: IC50

Example compounds with recorded IC50:
Cc1ncc([N+](=O)[O-])n1CCO [METRONIDAZOLE] :: Not Active
CC(=O)N[C@@H]1[C@H](Oc2c3cc4cc2Oc2ccc(cc2Cl)[C@@H](O[C@@H]2O[C@@H](CO)[C@@H](O)[C@H](O)[C@@H]2NC(C)=O)[C@@H]2NC(=O)[C@H](NC(=O)[C@@H]4NC(=O)[C@H]4NC(=O)[C@@H](Cc5ccc(c(Cl)c5)O3)NC(=O)[C@H](N)c3ccc(O)c(c3)Oc3cc(O)cc4c3)c3ccc(O)c(c3)-c3c(O[C@H]4O[C@H](CO)[C@@H](O)[C@@H](O)[C@@H]4O)cc(O)cc3[C@@H](C(=O)O)NC2=O)O[C@@H](CO)[C@@H](O)[C@@H]1O :: Not Active
CCCN(CCC)C(=O)C(CCC(=O)O)NC(=O)c1ccccc1 (stereo unspecified) [PROGLUMIDE] :: Not Active
CC[C@@H](CO)NCCN[C@@H](CC)CO [ETHAMBUTOL] :: Not Active
Nc1c(CC(=O)O)cccc1C(=O)c1ccc(Br)cc1 [BROMFENAC] :: Not Active

Switching to the query record.
Give recorded IC50. CCCC(=O)Nc1ccc(OCC(O)CNC(C)C)c(C(C)=O)c1 (stereo unspecified) [ACEBUTOLOL]
Not Active

----------
# SYSTEM_NAME: Beta-1 adrenergic receptor (Homo sapiens, UniProt P08588)
# Sequence (P08588 whole entry): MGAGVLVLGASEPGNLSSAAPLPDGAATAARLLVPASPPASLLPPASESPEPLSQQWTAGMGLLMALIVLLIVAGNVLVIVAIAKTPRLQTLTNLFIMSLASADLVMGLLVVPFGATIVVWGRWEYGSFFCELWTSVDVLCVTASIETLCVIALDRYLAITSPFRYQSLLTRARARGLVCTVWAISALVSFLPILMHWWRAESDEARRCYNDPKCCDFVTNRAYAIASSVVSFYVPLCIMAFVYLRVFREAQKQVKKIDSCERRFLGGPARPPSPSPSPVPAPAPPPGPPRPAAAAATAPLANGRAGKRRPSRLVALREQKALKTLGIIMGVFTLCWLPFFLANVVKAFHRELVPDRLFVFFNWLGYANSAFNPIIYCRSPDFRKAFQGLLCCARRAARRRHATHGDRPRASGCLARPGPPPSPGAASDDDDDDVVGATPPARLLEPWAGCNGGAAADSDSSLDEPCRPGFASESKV
# TEST_DESCRIPTION: DRUGMATRIX: Adrenergic beta1 radioligand binding (ligand: [125I] Cyanopindolol)
# Assay type: cell membranes, CHO-K1, Membrane
# REPORTED_CONDITIONS: Not Active = under 50% inhibition at 10 µM; read-out: Ki
METRIC: Ki (µM)
Expressed in µM, but write only the number.

Please give measured Ki of the following entry: CC/C(=C(/CC)c1ccc(O)cc1)c1ccc(O)cc1
12.8

----------
# TEST_DESCRIPTION: DRUGMATRIX: Tumor Necrosis Factor (TNF), Non-Selective radioligand binding (ligand: [125I] TNF-alpha)
# Format: cell membranes, Membrane
# REPORTED_CONDITIONS: u-937; Not Active = under 50% inhibition at 10 µM
METRIC: IC50

CC(=O)Nc1cccc(O)c1 [METACETAMOL] :: Not Active
CC(C(=O)O)c1cccc(C(=O)c2ccccc2)c1 (configuration not stated) [KETOPROFEN] :: Not Active
CC(=O)Nc1ccc(O)cc1 [ACETAMINOPHEN] :: Not Active
CC1=C(CC(=O)O)c2cc(F)ccc2/C1=C\c1ccc([S+](C)[O-])cc1 (configuration not stated) :: Not Active

Specify measured IC50 for O=C(c1ccc(OCCN2CCCCC2)cc1)c1c(-c2ccc(O)cc2)sc2cc(O)ccc12 [RALOXIFENE] .
Not Active

Hello, please tell me recorded IC50 for this one: CC[C@]1(O)C[C@@H]2CN(CCc3c([nH]c4ccccc34)[C@@](C(=O)OC)(c3cc4c(cc3OC)N(C)[C@H]3[C@@](O)(C(=O)OC)[C@H](OC(C)=O)[C@]5(CC)C=CCN6CC[C@]43[C@@H]65)C2)C1 [VINBLASTINE]
Not Active

State its IC50 for this compound: O=C1CC[C@H](N2C(=O)c3ccccc3C2=O)C(=O)N1
Not Active

Specify IC50 for C[C@]1(Cn2ccnn2)[C@H](C(=O)O)N2C(=O)C[C@H]2S1(=O)=O [TAZOBACTAM] and stop.
Not Active

Supply recorded IC50 for ClC(Cl)Cl [CHLOROFORM] here.
Not Active

Identify measured IC50 associated with O=NN(CCCl)C(=O)NCCCl [CARMUSTINE]
Not Active

Supply measured IC50 of Cc1ccc(S(=O)(=O)NC(=O)NN2CC3CCCC3C2)cc1 (configuration not stated) [GLICLAZIDE] in your reply.
Not Active

Respond only with IC50 recorded for Cc1cccc(Nc2ccncc2S(=O)(=O)NC(=O)NC(C)C)c1 [TORSEMIDE]
Not Active

Using known records, supply IC50 for Oc1ccc(OCc2ccccc2)cc1 [MONOBENZONE]
Not Active

Identify the reported IC50 for the following entry. C[C@H]1O[C@@H](O[C@H]2[C@@H](O)C[C@H](O[C@H]3[C@@H](O)C[C@H](O[C@H]4CC[C@@]5(C)[C@H](CC[C@@H]6[C@@H]5CC[C@]5(C)[C@@H](C7=CC(=O)OC7)CC[C@]65O)C4)O[C@@H]3C)O[C@@H]2C)C[C@H](O)[C@@H]1O [DIGITOXIN]
Not Active

Identify measured IC50 corresponding to OC(CCN1CCCCC1)(c1ccccc1)C1CCCCC1 (configuration not stated) [TRIHEXYPHENIDYL]
Not Active

Please look at this compound and report its IC50: NC(=O)c1cnccn1 [PYRAZINAMIDE]
Not Active

Report IC50, nothing else, for this compound: CC1(C)O[C@@H]2C[C@H]3[C@@H]4C[C@H](F)C5=CC(=O)CC[C@]5(C)[C@H]4[C@@H](O)C[C@]3(C)[C@]2(C(=O)CO)O1 [FLURANDRENOLIDE]
Not Active

----------
# SYSTEM_NAME: Estrogen receptor (Homo sapiens); note: in other assays of this panel Not Active means under 50% inhibition at 10 µM
# Sequence (P03372 whole entry): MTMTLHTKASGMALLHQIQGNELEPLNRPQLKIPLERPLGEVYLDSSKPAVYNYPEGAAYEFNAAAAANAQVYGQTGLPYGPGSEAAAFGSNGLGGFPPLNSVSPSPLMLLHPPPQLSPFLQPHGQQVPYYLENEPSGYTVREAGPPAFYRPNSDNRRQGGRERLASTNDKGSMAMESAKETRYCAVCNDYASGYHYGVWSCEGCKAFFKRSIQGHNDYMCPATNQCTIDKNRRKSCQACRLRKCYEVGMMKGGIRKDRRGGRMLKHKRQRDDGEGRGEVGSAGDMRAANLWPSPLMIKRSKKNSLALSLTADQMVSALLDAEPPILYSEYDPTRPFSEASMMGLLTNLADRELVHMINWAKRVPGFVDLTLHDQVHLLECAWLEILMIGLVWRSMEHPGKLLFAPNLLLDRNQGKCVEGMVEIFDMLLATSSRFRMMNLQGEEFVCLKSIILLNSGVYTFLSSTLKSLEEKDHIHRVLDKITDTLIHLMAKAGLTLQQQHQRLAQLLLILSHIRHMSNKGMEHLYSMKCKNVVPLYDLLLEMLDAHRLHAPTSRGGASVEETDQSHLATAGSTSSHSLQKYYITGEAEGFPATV
# REPORTED_CONDITIONS: sf9
METRIC: IC50

C/C=C/C[C@@H](C)[C@@H](O)[C@H]1C(=O)N[C@@H](CC)C(=O)N(C)CC(=O)N(C)[C@@H](CC(C)C)C(=O)N[C@@H](C(C)C)C(=O)N(C)[C@@H](CC(C)C)C(=O)N[C@@H](C)C(=O)N[C@H](C)C(=O)N(C)[C@@H](CC(C)C)C(=O)N(C)[C@@H](CC(C)C)C(=O)N(C)[C@@H](C(C)C)C(=O)N1C :: Not Active
Oc1ccc(OCc2ccccc2)cc1 :: Not Active
Cc1ncc([N+](=O)[O-])n1CCO :: Not Active

----------
# SYSTEM_NAME: Mitogen-activated protein kinase 14 (Homo sapiens); note: in other assays of this panel Not Active means under 50% inhibition at 10 µM;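 note: inhibition of p38alpha enzyme activity in a biochemical kinase assay, with myelin basic protein serving as substrate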
# Sequence (Q16539 whole entry): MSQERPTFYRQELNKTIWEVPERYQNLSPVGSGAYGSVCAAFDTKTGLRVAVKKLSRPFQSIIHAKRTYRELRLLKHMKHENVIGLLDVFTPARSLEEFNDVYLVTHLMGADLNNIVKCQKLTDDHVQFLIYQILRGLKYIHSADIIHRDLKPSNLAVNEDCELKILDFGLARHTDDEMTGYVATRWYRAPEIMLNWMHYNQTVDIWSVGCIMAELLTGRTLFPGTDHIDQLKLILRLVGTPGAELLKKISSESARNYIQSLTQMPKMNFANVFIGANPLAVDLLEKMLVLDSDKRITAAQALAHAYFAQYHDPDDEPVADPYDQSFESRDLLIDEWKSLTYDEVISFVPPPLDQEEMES
# Set-up: species or system Escherichia coli
METRIC: IC50

// solved cases for IC50 follow
Cc1cc(C)nc(NS(=O)(=O)c2ccc(N)cc2)n1 [SULFAMETHAZINE] :: Not Active
CO[C@H]1/C=C/O[C@@]2(C)Oc3c(C)c(O)c4c(c3C2=O)C2=NC3(CCN(CC(C)C)CC3)NC2=C(NC(=O)/C(C)=C\C=C\[C@H](C)[C@H](O)[C@@H](C)[C@@H](O)[C@@H](C)[C@H](OC(C)=O)[C@@H]1C)C4=O [RIFABUTIN] :: Not Active
OC(CCN1CCCCC1)(c1ccccc1)C1CCCCC1 (stereo not drawn) [TRIHEXYPHENIDYL] :: Not Active
NC(=O)NO [HYDROXYUREA] :: Not Active
Cc1cccc(Nc2ccncc2S(=O)(=O)NC(=O)NC(C)C)c1 [TORSEMIDE] :: Not Active
COC(=O)C1=C(C)NC(C)=C(C(=O)OCC(C)C)C1c1ccccc1[N+](=O)[O-] (stereo not drawn) [NISOLDIPINE] :: Not Active
C=CCN1CC[C@]23c4c5ccc(O)c4O[C@H]2C(=O)CC[C@@]3(O)[C@H]1C5 [NALOXONE] :: Not Active

Here is the next item to consider.
Please give the documented IC50 of COc1ccc2c(c1)[C@]13CCCC[C@@H]1[C@H](C2)N(C)CC3 [DEXTROMETHORPHAN]
Not Active
